Record type: IC50 measurement. Applies to: 3',5'-cyclic-AMP phosphodiesterase 4B (Homo sapiens)
OUTCOME_MEASURE: IC50 (µM)

1 = Cc1cc(C)n(C(=O)c2coc(-c3ccccc3O)n2)n1
2 = O=C(c1coc(-c2ccccc2)n1)n1cccn1
Req: Between 1 and 2 , whose recorded IC50 is greater? Write down the label attached to your selection.
Resp: 2

P = O=C(c1coc(-c2ccc(Cl)cc2)n1)n1cccn1
Q = O=C(c1coc(-c2cccc(O)c2)n1)n1cccn1
Req: Between P and Q , whose recorded IC50 is greater? Write down the label attached to your selection.
Resp: Q

P = Cc1ccc(-c2nc(C(=O)n3nc(C)cc3C)co2)cc1
Q = Cc1cc(C)n(C(=O)c2coc(-c3ccc(Cl)cc3)n2)n1
Req: Between P and Q , whose recorded IC50 is greater? Write down the label attached to your selection.
Resp: P
(P: 6.7 µM, Q: 4.1 µM)

* * *

Record type: pIC50 measurement. Applies to: 3',5'-cyclic-AMP phosphodiesterase 4B (Homo sapiens, UniProt Q07343)
pIC50: −log10 of the molar value.
OUTCOME_MEASURE: pIC50

Cc1ccc(-c2nc(C(=O)n3cccn3)co2)cc1	4.76

a = Cc1cc(C)n(C(=O)c2coc(-c3ccc(O)cc3)n2)n1
b = COc1cccc(-c2nc(C(=O)n3cccn3)co2)c1
c = COc1ccc(-c2nc(C(=O)n3cccn3)co2)cc1
Req: Put these in order: smallest pIC50 first, largest last. Your answer should be the labels, listed in the requested order.
Resp: a, b, c
(a: 4.80, b: 5.23, c: 5.49)
